# Tested on: Stenotrophomonas maltophilia IS 6069
# METHOD_SUMMARY: Antimicrobial MIC / checkerboard assay for synergy with meropenem
# Format: cell-based
# STUDY_CONDITIONS: S. maltophilia IS 6069, meropenem + compound
ENDPOINT_LABEL: FIC
No unit in the answer, please; the number alone is enough.

In the examples that follow, each entry is paired with its recorded FIC.
O=C(Cc1cccs1)N[C@@H]1C(=O)N2C(C(=O)O)=C(CSC(=O)c3ccccc3)CS[C@H]12 [CMPD B]    0.1875
O=C(Cc1ccc(Cl)cc1)N[C@@H]1C(=O)N2C(C(=O)O)=C(CSC(=O)c3ccccc3)CS[C@H]12 [CMPD D]    0.1875
O=C(Cc1ccc(F)cc1)N[C@@H]1C(=O)N2C(C(=O)O)=C(CSC(=O)c3ccccc3)CS[C@H]12 [CMPD E]    0.1875
O=C(Cc1cccs1)N[C@@H]1C(=O)N2C(C(=O)O)=C(CSC(=O)c3ccccc3)CS[C@H]12 [CMPD A]    0.25

Would you kindly look at the next entry?
I would be grateful if you could share the reported FIC for COc1cccc(CC(=O)N[C@@H]2C(=O)N3C(C(=O)O)=C(CSC(=O)c4ccccc4)CS[C@H]23)c1 [CMPD F] .
0.1875
